Tested on: GPER‐transduced Sf9 cells
PROTOCOL_DETAILS: EdU incorporation proliferation assay in GPER-transduced Sf9 cells
Format: cell-based
COND: Spodoptera frugiperda, read-out: Cell proliferation IC50
# IC50 annotations
MEASURED_ATTRIBUTE: IC50

> print(dat)
                                   molecule  recorded.measurement
1  COc1cc2c(cc1O)CC[C@@H]1[C@@H]2CC[C@]2(C)[C@@H](O)CC[C@@H]12 [2‐ME, 2‐Methoxyestradiol]              0.026 nM
2  C[C@]12CCC(=O)C=C1CC[C@@H]1[C@@H]2[C@@H](O)C[C@]2(C=O)[C@@H](C(=O)CO)CC[C@@H]12 [Aldosterone]              0.104 nM
